In this section we review reported KD as fold increase compared to hu31A.v11 wild type values for a set of binders.
biological target: T1, recombinant His-tagged human tryptase beta 1 monomer (human, UniProt Q15661 31-275); assay: SPR, tryptase beta 1 monomer
T1 construct: also called His6-tagged tryptase monomer; human tryptase b1 monomer
T1 sequence (Q15661 other isoform, or with tags, fused parts or gaps): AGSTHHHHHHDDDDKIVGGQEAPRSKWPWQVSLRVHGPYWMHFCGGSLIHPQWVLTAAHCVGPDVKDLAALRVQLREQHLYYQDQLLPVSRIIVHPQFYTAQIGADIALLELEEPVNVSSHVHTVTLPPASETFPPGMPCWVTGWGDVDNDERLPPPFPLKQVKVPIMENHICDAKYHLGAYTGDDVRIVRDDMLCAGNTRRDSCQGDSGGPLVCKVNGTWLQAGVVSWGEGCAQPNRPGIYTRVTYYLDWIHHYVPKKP
Please respond with the number in fold and leave the unit unwritten.

Would you please look over these solved cases?
[
  {
    "Binder": "hu31A.v11 W100R (antibody, name in Kabat numbering, V domains shown, also called W100R variant) VH: EVQLVESGGGLVQPGGSLRLSCAASGFTFSDYGMVWVRQAPGKGLEWVAFISSGSSTVYYADTMKGRFTISRDNSKNTLYLQMNSLRAEDTAVYYCTRRNYDDRYFDVWGQGTLVTVSS VL: DIQMTQSPSSLSASVGDRVTITCSASSSVTYMYWYQQKPGKSPKPWIYRTSDLASGVPSRFSGSGSGTDFTLTISSLQPEDFATYYCQHYHSYPLTFGQGTKVEIK",
    "Reading": 54
  },
  {
    "Binder": "hu31A.v11 W100V (antibody, name in Kabat numbering, V domains shown, Position 100 is Kabat numbering; also called W100V variant) VH: EVQLVESGGGLVQPGGSLRLSCAASGFTFSDYGMVWVRQAPGKGLEWVAFISSGSSTVYYADTMKGRFTISRDNSKNTLYLQMNSLRAEDTAVYYCTRRNYDDVYFDVWGQGTLVTVSS VL: DIQMTQSPSSLSASVGDRVTITCSASSSVTYMYWYQQKPGKSPKPWIYRTSDLASGVPSRFSGSGSGTDFTLTISSLQPEDFATYYCQHYHSYPLTFGQGTKVEIK",
    "Reading": 821
  },
  {
    "Binder": "hu31A.v11 W100L (antibody, name in Kabat numbering, V domains shown, also called W100L variant) VH: EVQLVESGGGLVQPGGSLRLSCAASGFTFSDYGMVWVRQAPGKGLEWVAFISSGSSTVYYADTMKGRFTISRDNSKNTLYLQMNSLRAEDTAVYYCTRRNYDDLYFDVWGQGTLVTVSS VL: DIQMTQSPSSLSASVGDRVTITCSASSSVTYMYWYQQKPGKSPKPWIYRTSDLASGVPSRFSGSGSGTDFTLTISSLQPEDFATYYCQHYHSYPLTFGQGTKVEIK",
    "Reading": 2410
  },
  {
    "Binder": "hu31A.v11 W100Y (antibody, name in Kabat numbering, V domains shown, Position 100 is Kabat numbering; also called W100Y variant) VH: EVQLVESGGGLVQPGGSLRLSCAASGFTFSDYGMVWVRQAPGKGLEWVAFISSGSSTVYYADTMKGRFTISRDNSKNTLYLQMNSLRAEDTAVYYCTRRNYDDYYFDVWGQGTLVTVSS VL: DIQMTQSPSSLSASVGDRVTITCSASSSVTYMYWYQQKPGKSPKPWIYRTSDLASGVPSRFSGSGSGTDFTLTISSLQPEDFATYYCQHYHSYPLTFGQGTKVEIK",
    "Reading": 234
  }
]

Query block: I would be grateful if you could share the reported KD as fold increase compared to hu31A.v11 wild type for hu31A.v11 W100F (antibody, name in Kabat numbering, V domains shown, also called W100F variant) VH: EVQLVESGGGLVQPGGSLRLSCAASGFTFSDYGMVWVRQAPGKGLEWVAFISSGSSTVYYADTMKGRFTISRDNSKNTLYLQMNSLRAEDTAVYYCTRRNYDDFYFDVWGQGTLVTVSS VL: DIQMTQSPSSLSASVGDRVTITCSASSSVTYMYWYQQKPGKSPKPWIYRTSDLASGVPSRFSGSGSGTDFTLTISSLQPEDFATYYCQHYHSYPLTFGQGTKVEIK .
Result block: 80
